assay: Toxicity assay on SH-SY5Y; format: cell-based; conditions: human, SH-SY5Y neuroblastoma cells
measuredQuantity: viability at 72 h, 50 µM

// field: viability at 72 h, 50 µM; key: O=C(NCc1ccc[n+](Cc2cccc(F)c2)c1)c1ccc(CN2C(=O)c3ccccc3C2=O)cc1.[Cl-] ; value = ~80%

* * *

biological target: AChE (Homo sapiens)
Sequence (P22303 32-614): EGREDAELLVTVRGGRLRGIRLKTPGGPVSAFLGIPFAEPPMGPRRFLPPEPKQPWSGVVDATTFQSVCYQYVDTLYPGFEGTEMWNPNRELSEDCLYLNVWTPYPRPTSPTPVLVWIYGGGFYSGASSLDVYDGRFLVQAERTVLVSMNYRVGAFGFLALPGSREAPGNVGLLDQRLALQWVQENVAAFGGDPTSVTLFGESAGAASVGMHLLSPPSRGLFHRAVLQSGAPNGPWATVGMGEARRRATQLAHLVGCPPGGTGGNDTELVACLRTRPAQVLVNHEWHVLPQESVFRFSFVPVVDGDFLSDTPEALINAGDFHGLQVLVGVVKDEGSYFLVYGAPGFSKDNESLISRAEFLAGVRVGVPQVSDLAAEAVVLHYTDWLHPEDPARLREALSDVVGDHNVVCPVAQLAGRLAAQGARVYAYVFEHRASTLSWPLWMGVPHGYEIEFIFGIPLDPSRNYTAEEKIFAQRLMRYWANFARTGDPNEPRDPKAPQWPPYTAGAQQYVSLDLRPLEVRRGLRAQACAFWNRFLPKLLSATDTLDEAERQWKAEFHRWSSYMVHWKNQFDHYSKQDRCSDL
measuredQuantity: pKi
Keep it numeric: pKi is minus log10 of the concentration in mol/L.

// field: pKi; key: O=C(NCc1ccc[n+](Cc2ccc(Br)cc2)c1)c1ccc(CN2C(=O)c3ccccc3C2=O)cc1.[Br-] ; value = 6.03

* * *

Form: system (UniProt:P06276), quantity (pIC50), values below.
Sequence (P06276 29-602, species assumed): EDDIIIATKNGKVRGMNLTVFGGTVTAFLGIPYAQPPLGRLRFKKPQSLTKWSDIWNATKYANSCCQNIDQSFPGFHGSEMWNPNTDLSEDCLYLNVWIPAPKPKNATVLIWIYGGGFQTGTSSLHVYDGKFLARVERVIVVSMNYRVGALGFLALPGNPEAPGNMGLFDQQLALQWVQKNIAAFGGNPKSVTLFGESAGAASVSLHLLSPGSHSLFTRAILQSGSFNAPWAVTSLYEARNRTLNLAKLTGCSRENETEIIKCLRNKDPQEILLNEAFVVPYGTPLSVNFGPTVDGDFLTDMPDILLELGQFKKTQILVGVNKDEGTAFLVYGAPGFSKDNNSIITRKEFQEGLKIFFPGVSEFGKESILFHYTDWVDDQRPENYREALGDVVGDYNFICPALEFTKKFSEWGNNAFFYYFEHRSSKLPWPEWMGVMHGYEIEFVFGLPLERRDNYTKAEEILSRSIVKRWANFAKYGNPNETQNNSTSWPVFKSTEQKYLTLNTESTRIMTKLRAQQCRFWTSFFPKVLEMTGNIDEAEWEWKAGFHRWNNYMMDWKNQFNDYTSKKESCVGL
Keep it numeric: pIC50 is minus log10 of the concentration in mol/L.

O=C(NCc1ccc[n+](Cc2ccc(F)cc2)c1)c1ccc(CN2C(=O)c3ccccc3C2=O)cc1; 6.48
O=C(NCc1ccc[n+](Cc2cccc(F)c2)c1)c1ccc(CN2C(=O)c3ccccc3C2=O)cc1.[Cl-]; 7.10
O=C(NCc1ccc[n+](Cc2cccc(Br)c2)c1)c1ccc(CN2C(=O)c3ccccc3C2=O)cc1; 6.82

The compound CC[n+]1cccc(CNC(=O)c2ccc(CN3C(=O)c4ccccc4C3=O)cc2)c1 , when measured on UniProt:P06276, yielded pIC50 of 6.31
